Data origin: PubChem BioAssay

# protocol.details: stimulators of nuclear beta-catenin in C2C12, primary screen, imaging, WNT3A-conditioned medium, mouse C2C12, NPC library (AID 1117326); note: reference of the scale not given here
# run.parameters: at 10 µM, hits give high values
measured.parameter: nuclear beta-catenin stimulation (%)
A number alone suffices; assume %.

// solved cases for nuclear beta-catenin stimulation follow
Cc1cc(OCCOCC[N+](C)(C)Cc2ccccc2)ccc1C(C)(C)CC(C)(C)C; 3
C[C@]12C=CC(=O)C=C1CC[C@@H]1[C@@H]2[C@@H](O)C[C@@]2(C)[C@H]1CC[C@]2(O)C(=O)CO; -2.6
Cc1c(C)n(Cc2ccccc2)c2ccc(C(=O)OCCN(C)C)cc12; 12.1
CC(=O)Nc1ccc(OC(=O)c2ccccc2OC(C)=O)cc1; 0.6
C[C@H]1NCc2cc(-c3ccc4c(=O)c(C(=O)O)cn(C5CC5)c4c3OC(F)F)ccc21; 4.5
CSc1ccc2c(c1)N(CCC1CCCCN1C)c1ccccc1S2 (stereo unspecified); 22.9
O=C(OCC(O)CO)c1ccccc1Nc1ccnc2c(C(F)(F)F)cccc12 (stereo unspecified); 1
c1ccc2sc(SN3CCOCC3)nc2c1; 0.5

input: Return reported nuclear beta-catenin stimulation; argument: CC(COc1ccccc1)N(CCCl)Cc1ccccc1 (stereo unspecified)
output: 1.1

input: Please give the measured nuclear beta-catenin stimulation for this molecule: `CCC(=O)Nc1ccc(O)cc1`
output: 9.3

input: Item `OCCN1CCN(CCCN2c3ccccc3Sc3ccc(Cl)cc32)CC1` has what recorded nuclear beta-catenin stimulation?
output: 73.5

input: Form field: reported nuclear beta-catenin stimulation of CN(C)CCOC(c1ccc(Cl)cc1)c1ccccn1 (stereo unspecified)
output: 0.9

---

# protocol.details: stimulators of nuclear beta-catenin in C2C12, primary screen, imaging, WNT3A-conditioned medium, mouse C2C12, NPC library (AID 1117326); note: reference of the scale not given here
# run.parameters: at 10 µM, hits give high values
Starred links: 1 amine or outer side, 2 acyl side, 3 side chain; linkers in the order of their positions; H or OH if unused. Positions of bridges follow the written chain, without caps; N, C: chain ends. Non-standard residues stand in square brackets, D forms with d. Residues, ends and D or L forms follow the SMILES beside them. ξ: configuration not given here. *: point of attachment. ΔAla(3-NHCONH2) = NC(=O)NC=C(N)C(=O)O; X1 = NC1=NCCC(C(N[*:1])C(=O)[*:2])N1; ξβ3hOrn = NCCCC(N)CC(=O)*; Dap = NC[CH](N)C(=O)O
measured.parameter: nuclear beta-catenin stimulation (%)
Answer format: numeric, % implied, no suffix.

input: Quick one: nuclear beta-catenin stimulation of `Cc1ccc(CCn2c3c(c4cc(Cl)ccc42)CN(C)CC3)cn1` ?
output: 0.2

input: Can you share its nuclear beta-catenin stimulation? I mean this compound: COc1c(N2CCNC(C)C2)c(F)cc2c(=O)c(C(=O)O)cn(C3CC3)c12 (stereo not drawn)
output: 0.7

input: Fill in the blank: the reported nuclear beta-catenin stimulation of `CN(C)CCCN1c2ccccc2Sc2ccc(Cl)cc21` is ____.
output: 5.5

input: Recorded nuclear beta-catenin stimulation of `CCOC(=O)c1cc(=O)c2c(OCC(COc3cccc4oc(C(=O)OCC)cc(=O)c34)OC(=O)[C@@H](N)CCCCN)cccc2o1` , please.
output: 0.5

input: Fill blank: measured nuclear beta-catenin stimulation of the compound NCCCC(N)CC(=O)NCC1NC(=O)C(CO)NC(=O)C(N)CNC(=O)C(C2CCN=C(N)N2)NC(=O)C(=CNC(N)=O)NC1=O (stereo not drawn) (H-[Dap]S[Dap](ξβ3hOrn)[ΔAla(3-NHCONH2)][X1]; lactam 1-C; configuration not given here) is ____.
output: 0.2

input: What value of nuclear beta-catenin stimulation has been recorded for this entry: Cc1ncc([N+](=O)[O-])n1CC(C)O (stereo not drawn)
output: 3.5

input: # input compound: CCN(CC)CCCC(C)Nc1ccnc2cc(Cl)ccc12 (stereo not drawn) ; wanted: its nuclear beta-catenin stimulation
output: 1.4

input: Would you kindly share the measured nuclear beta-catenin stimulation for `C[C@H]1O[C@@H](O[C@H]2CC[C@@]3(C)[C@H](CC[C@@H]4[C@@H]3C[C@@H](O)[C@]3(C)[C@@H](C5=CC(=O)OC5)CC[C@]43O)C2)C[C@H](O)[C@@H]1O[C@H]1C[C@H](O)[C@H](O[C@H]2C[C@H](O)[C@H](O[C@@H]3O[C@H](CO)[C@@H](O)[C@H](O)[C@H]3O)[C@@H](C)O2)[C@@H](C)O1` ?
output: -1

---

# protocol.details: modulation of C. elegans fzo-1 (AID 1259413);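 note: fzo-1 mutant C. elegans worms in liquid wells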
# run.parameters: C. elegans fzo-1 modulator screen, mean read-out; hits give high values
measured.parameter: mean signal
Just the number, please.

Would you please look over these solved cases?
Cc1nc2ccccn2c(=O)c1CCN1CCC(C(=O)c2ccc(F)cc2)CC1; 234
CC(COc1ccccc1)NC(C)C(O)c1ccc(O)cc1 (stereo unspecified); 247
N[C@@H](C(=O)N[C@@H]1C(=O)N2C(C(=O)O)=C(Cl)CS[C@H]12)c1ccccc1; 277
C[C@H]1C[C@@H]2[C@H]([C@@H](O)C[C@@]3(C)[C@H]2CC[C@]3(O)C(=O)CO)[C@@]2(C)C=CC(=O)C=C12; 290
CCn1cc(C(=O)O)c(=O)c2cc(F)c(N3CCNCC3)cc21; 207
COc1ccc(Cl)cc1C(=O)NCCc1ccc(S(=O)(=O)NC(=O)NC2CCCCC2)cc1; 242
Nc1nc2ncc(CNc3ccc(C(=O)N[C@@H](CCC(=O)O)C(=O)O)cc3)nc2c(=O)[nH]1; 246
CCCNC(C)C(=O)Nc1ccccc1C (stereo unspecified); 270

input: May I ask what mean signal has been recorded for `CCOc1ccc2ccccc2c1C(=O)N[C@@H]1C(=O)N2[C@@H]1SC(C)(C)[C@@H]2C(=O)O` ?
output: 253

input: What does the data say about its mean signal? Entry: `Oc1c(Cl)cc(Cl)c2cccnc12`
output: 244

input: Which measured mean signal value corresponds to `NC(N)=NC(=O)c1nc(Cl)c(N)nc1N` ?
output: 212

input: Data request, read-out mean signal, for `NS(=O)(=O)c1cc2c(cc1C(F)(F)F)NCNS2(=O)=O`
output: 224

input: Item under review: COc1ccccc1OCC(O)COC(N)=O (stereo unspecified) . Reported mean signal?
output: 264

input: Quick one: mean signal of `CN(C)CCOC(c1ccccc1)c1ccccc1` ?
output: 216

input: Suppose we examine the compound `CN(C)CCCN1c2ccccc2CCc2ccc(Cl)cc21` ; what mean signal value has been reported?
output: 222

input: Give the measured mean signal of `Nc1ncn([C@@H]2O[C@H](CO)[C@@H](O)[C@H]2O)c(=O)n1` .
output: 231

input: Give its mean signal value. Item: `S=c1nc[nH]c2nc[nH]c12`
output: 247

input: Which mean signal value is on record for `CC1=NS(=O)(=O)c2cc(Cl)ccc2N1` ?
output: 242

input: // lookup mean signal for CC(C[N+](C)(C)C)OC(N)=O (stereo unspecified)
output: 276

input: Could you tell me which mean signal is on file for `Cc1ccc(-c2cc(C(F)(F)F)nn2-c2ccc(S(N)(=O)=O)cc2)cc1` ?
output: 242

input: What measured mean signal goes with `Nc1nc2c(ncn2COCCO)c(=O)[nH]1` ?
output: 281

---

# protocol.details: HCT116 colon cancer cell growth inhibition, primary screen, CellTiter-Glo luminescence, NPC library (AID 1117342)
# run.parameters: at 20 µM (top of the series)
Active and inactive are the calls of the source.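 The calls were made as follows: active = compounds that lower survival of HCT116 colon cancer cells in the luminescence readout, no numeric limit stated; inactive = the rest.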
Recorded inhibition of viability, one value per entry.

Recorded results for 6 compounds are shown here.
CC1=C(CC(=O)O)c2cc(F)ccc2/C1=C\c1ccc(S(C)=O)cc1 (configuration not stated); -9.1% (inactive)
NS(=O)(=O)c1cc(C2(O)NC(=O)c3ccccc32)ccc1Cl (configuration not stated); -5.17% (inactive)
CCOc1ccc(NS(=O)(=O)c2ccc(N)cc2)nn1; -1.7% (inactive)
O=Cc1ccccc1C=O; -1.7% (inactive)
C/C(=N\O)c1ccc(OCC(=O)N2CCCCC2)cc1; 13.8% (inactive)
O=C(NCCc1c[nH]c2ccccc12)c1cccnc1; -5.5% (inactive)

Now turn to the next compound.
input: What value of inhibition of viability has been reported for the following compound? `CCCCCCCCCCCCCCCC(=O)OCC(COC(=O)CCCCCCCCCCCCCCC)OC(=O)CCCCCCCCCCCCCCC`
output: -1.3% (inactive)

---

# target.under.test: Cellular tumor antigen p53 (Homo sapiens) (UniProt P04637)
# Sequence (P04637 whole entry, looked up): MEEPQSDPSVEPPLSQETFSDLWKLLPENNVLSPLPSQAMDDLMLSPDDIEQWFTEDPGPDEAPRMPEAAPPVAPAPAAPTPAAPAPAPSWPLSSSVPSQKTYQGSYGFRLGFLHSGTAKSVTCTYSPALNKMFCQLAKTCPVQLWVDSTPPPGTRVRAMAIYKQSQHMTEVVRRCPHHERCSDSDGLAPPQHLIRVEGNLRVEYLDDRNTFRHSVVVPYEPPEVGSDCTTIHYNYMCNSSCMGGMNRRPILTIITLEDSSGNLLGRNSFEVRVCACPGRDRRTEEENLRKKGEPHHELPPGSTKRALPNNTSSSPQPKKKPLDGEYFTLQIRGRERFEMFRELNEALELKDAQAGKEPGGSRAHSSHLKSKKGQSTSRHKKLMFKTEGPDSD
# protocol.details: kinase inhibitors altering GFP-p53 stability in HPV16-positive cells, imaging, known kinase inhibitor set, EGFP/DsRed ratio (AID 1053116);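 note: cells exposed to compounds for 24 h at 37 °C before reading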
# run.parameters: hits give high values
Activity calls are given as the source filed them. The rule behind the calls is not given here.
measured.parameter: EGFP/DsRed ratio

// known answers, use as guide
Nc1c(C(=O)c2cccc(CCCN3CCOCC3)c2)cnn1-c1ccc(F)cc1; 0.339 (inactive)
CC(=O)NC(Cc1ccc(OP(=O)(O)O)cc1)C(=O)NC1CCC(=O)N2CCCC(C(=O)NCc3ccc(Cl)cc3)N2C1=O (configuration not stated); 0.276 (inactive)
CC1(C)CC(n2cnc(-c3ccc(F)cc3)c2-c2ccnc(N)n2)CC(C)(C)N1; 0.0677 (inactive)
COc1cc(Nc2nccc(Nc3ccc4c(C)[nH]nc4c3)n2)cc(OC)c1OC; 0.0182 (inactive)
CN(C)CCOc1ccc(-c2cc(-c3ccc4c(c3)CC/C4=N/O)c(-c3ccncc3)o2)cc1; 1.74 (active)
N=C1N=C(N)C(=Cc2ccc3ncccc3c2)S1; 0.171 (inactive)

input: Requested field: EGFP/DsRed ratio. Item: `CNC(=O)c1cc(-c2ccc(F)cc2)cc(-c2ccc(S(=O)(=O)N3CCCC3)cc2)c1N`
output: 0.244 (inactive)
